# Method summary: Drug repurposing screens with cells derived from glioblastoma tumor samples (AID 1345199); further: on the % scale 0 is the no-effect control and ±100 the full control effect; nearly all actives have a fitted effect of over 40% in size
# Condition notes: GBM patient neurospheres viability, ATP luminescence, 48 h; at 46.1 µM (top of the series); tumour line C
Results filed as inconclusive are left out.
Rule: measured activity, negative = cell killing below -10% gets condition met; anything equal to or greater than -10% gets condition not met.

Consider the following illustrative entries.
C=CCn1c(=O)n([C@@H]2O[C@H](CO)[C@@H](O)[C@H]2O)c2nc(N)[nH]c(=O)c21 : condition not met
CC(C(O)c1ccc(O)cc1)N1CCC(Cc2ccccc2)CC1 (stereo not given) : condition met
NC(=O)N/N=C/c1ccc([N+](=O)[O-])o1 : condition not met
COc1ccc(S(=O)(=O)Nc2nnc(CC(C)C)s2)cc1 : condition met
CCCOC(=O)c1ccccc1 : condition met

Below -10% on activity, negative = cell killing? Entry Cc1c(Cl)cccc1Nc1ccccc1C(=O)O condition not met

Below -10% on activity, negative = cell killing? Entry O=c1[nH]cnc2c1ncn2[C@@H]1O[C@H](CO)[C@@H](O)[C@H]1O condition not met

Below -10% on activity, negative = cell killing? Entry CN(C)CCCO[C@@H]1[C@H]2OC(C)(C)O[C@H]2O[C@@H]1C(O)CO (stereo not given in full) condition met

Below -10% on activity, negative = cell killing? Entry CN(C)CCOC(C)(c1ccccc1)c1ccccn1 (stereo not given) condition not met

---

# Method summary: Drug repurposing screens with cells derived from glioblastoma tumor samples (AID 1345199); further: on the % scale 0 is the no-effect control and ±100 the full control effect; nearly all actives have a fitted effect of over 40% in size
# Condition notes: GBM patient neurospheres viability, ATP luminescence, 48 h; at 45.9 µM (top of the series); tumour line D
Inconclusive results are not listed.
Experimental endpoint: activity, negative = cell killing (%)
Answers are plain numbers, in %.

Solved cases (2 shown):
CCC(=O)c1ccc(O)cc1 : -10.1
NC1CCN(c2cccc(Cl)n2)CC1 : 3.86

Now consider a different compound.
# activity, negative = cell killing of CCC(=O)Nc1ccc(O)cc1 = -0.42

---

# System: MCC-13
# Method summary: qHTS assay to identify novel small-molecules to repurpose for Merkel cell carcinoma treatment (AID 1296009); further: on the % scale 0 is the no-effect control and ±100 the full control effect; nearly all actives have a fitted effect of over 60% in size
# Condition notes: MCC and control cell lines, CellTiter-Glo viability, 72 h; series mostly up to 46 µM
Results filed as inconclusive are left out. Active and inactive are the calls of the source. The call rests on the fitted dose curve; in most records, active means well fitted inhibition curve with a large enough effect; inconclusive means small, poorly fitted or top-dose-only effect; inactive means flat fitted curve, though single readings scatter.
Experimental endpoint: activity change, negative = cytotoxicity

CCCn1cnc2c1c(=O)n(CCCCC(C)=O)c(=O)n2C : inactive
C[C@@H]1C[C@H]2[C@@H]3C[C@H](F)C4=CC(=O)C=C[C@]4(C)[C@@]3(F)[C@@H](O)C[C@]2(C)[C@@]1(O)C(=O)CO : inactive
O=C(O)Cc1sc(-c2ccccc2)nc1-c1ccc(Cl)cc1 : inactive
Nc1ncnc2c1ncn2[C@@H]1O[C@H](CO)[C@@H](O)[C@H]1O : inactive
CCCCC(CC)COC(=O)c1ccccc1O (stereo not given) : inactive
C[C@@H]1CC[C@@]2(OC1)O[C@H]1C[C@H]3[C@@H]4CC[C@H]5C[C@@H](O)CC[C@]5(C)[C@H]4CC(=O)[C@]3(C)[C@H]1[C@@H]2C : -5.49% [at 4.84 µM] (inactive)
CC(C)(C)C(=O)NCCCC(=O)O : inactive
C[C@](N)(Cc1ccc(O)cc1)C(=O)O : 6.34% [at 4.84 µM] (inactive)

Report activity change, negative = cytotoxicity for every entry below.
1. CN(C)CCCO[C@@H]1[C@H]2OC(C)(C)O[C@H]2O[C@@H]1C(O)CO (stereo not given in full)
2. NCCNCCNCCN

1: inactive; 2: inactive

---

# Method summary: qHTS of pediatric cancer cell lines to identify multiple opportunities for drug repurposing: Primary screen for Rh18 cells (AID 1347102); further: nearly all actives have a fitted effect of over 65% in size; further: potency means the concentration at half of the fitted maximal effect
# Condition notes: Rh18 rhabdomyosarcoma viability, CellTiter-Glo luminescence, 48 h; series mostly up to 46 µM
# Protocol: Drug repurposing or repositioning has been offered as a strategy for drug development in oncology programs. […] [1] Shen, M et al. Quantitative high-throughput phenotypic screening of pediatric cancer cell lines identifies multiple opportunities for drug repurposing. […] Cells were assayed in growth media at a density of 500-1,000 cells/well. […] After a 15 min incubation at room temperature, samples were analyzed for luminescence intensity using a ViewLux High-throughput CCD imager equipped with clear filters.
Records with an inconclusive call do not appear. Activity calls are given as the source filed them. Calls follow the shape of the dose curve; as a rule, active = well fitted cell-killing curve with a large enough effect; inconclusive = small, poorly fitted or top-dose-only effect; inactive = flat fitted curve, though single readings scatter.
Experimental endpoint: Potency

Solved cases (4 shown):
CCCCN(CCCC)CC(O)c1cc(Cl)cc2c1-c1ccc(Cl)cc1/C2=C/c1ccc(Cl)cc1 (stereo not given) : 21.1 µM (active)
CCCCCCCCCCCCCCCCCCOCC(O)CO (stereo not given) : inactive
CCOc1ccc2ccccc2c1C(=O)N[C@@H]1C(=O)N2[C@@H]1SC(C)(C)[C@@H]2C(=O)O : inactive
N[C@@H](CSCCCO)C(=O)O : inactive

Now consider a different compound.
# Potency of CC(=O)Oc1c(C)c(C)c2c(c1C)CC[C@@](C)(CCC[C@H](C)CCC[C@H](C)CCCC(C)C)O2 = inactive

---

# Method summary: Cell Viability qHTS for small molecule stabilizers of the endoplasmic reticulum resident proteome (AID 1508629);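 further: human SH-SY5Y neuroblastoma cells carrying the GLuc-SERCaMP reporter; compound exposure about 46 h in total before the viability read; on the % scale 0 is the no-effect control and ±100 the full control effect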
# Condition notes: cell viability counter-screen, 100 nM thapsigargin for final 4 h
Records with an inconclusive call do not appear.
Please respond with reported max response for every item in the list.
Give bare numbers, in %.

Solved cases (4 shown):
Cc1cc2nc3c(=O)[nH]c(=O)nc-3n(C[C@H](O)[C@H](O)[C@H](O)CO)c2cc1C : 11.4
CC(C)(C)[C@]1(O)CCN2C[C@H]3c4ccccc4CCc4cccc(c43)[C@@H]2C1 : 16.4
CN1CCCCC1CCN1c2ccccc2Sc2ccc(S(C)=O)cc21 (stereo not given) : -1.8
O=C1N=C(O)CN1/N=C/c1ccc(-c2ccc([N+](=O)[O-])cc2)o1 : 30.6

Now consider a different compound.
# max response of O=c1cc(CO)occ1O = 8.05

---

# Method summary: Quantitative high throughput screen for delayed death inhibitors of the malarial parasite plastid, 48 hour incubation (AID 488752); further: on the % scale 0 is the no-effect control and ±100 the full control effect; nearly all actives have a fitted effect of over 65% in size
# Condition notes: Plasmodium falciparum growth; series mostly up to 28.7 µM
Results filed as inconclusive are left out. Activity calls are given as the source filed them. Calls come from the whole dose curve; as a rule, active = well fitted inhibition curve with a large enough effect; inconclusive = small, poorly fitted or top-dose-only effect, or effect the other way; inactive = flat fitted curve, though single readings scatter.
Thanks in advance; please answer with one of these: Yes (active), No (inactive)

Consider the following illustrative entries.
C#CCN(C)Cc1ccccc1 : No
NC(N)=NCCC[C@H](N)C(=O)O : No
C=Cc1c(C)c2cc3[nH]c(cc4nc(cc5nc(cc1[nH]2)C(C)=C5CCC(=O)O)C(CCC(=O)O)=C4C)c(C)c3C=C : No
NC(=O)c1ncn([C@@H]2O[C@H](CO)[C@@H](O)[C@H]2O)n1 : No
CC(=O)OCC(=O)[C@@]1(O)CC[C@H]2[C@@H]3CCC4=CC(=O)CC[C@]4(C)[C@H]3C(=O)C[C@@]21C : No

Assay outcome for CCCn1cnc2c1c(=O)n(CCCCC(C)=O)c(=O)n2C : what was it? No

Assay outcome for CN(C)CCOC(C)(c1ccccc1)c1ccccn1 (configuration not stated) : what was it? No

---

# System: Dd2
# Method summary: qHTS profiling for inhibitors of Plasmodium falciparum proliferation (AID 504749); further: nearly all actives have a fitted effect of over 60% in size
# Condition notes: P. falciparum in erythrocytes, SYBR Green DNA, 72 h; series mostly up to 28.7 µM
Results filed as inconclusive are left out. Activity calls are given as the source filed them. The call rests on the fitted dose curve; in most records, active means well fitted inhibition curve with a large enough effect; inconclusive means small, poorly fitted or top-dose-only effect; inactive means flat fitted curve, though single readings scatter.
Experimental endpoint: outcome

Solved cases (5 shown):
O=C(Oc1ccccc1C(=O)O)c1ccccc1O : inactive
CCOC(=O)c1ccc(O)cc1 : inactive
CC(C)(C)NCC(O)COc1ccc(NC(=O)NC2CCCCC2)cc1 (stereo unspecified) : inactive
C=Cc1c(C)c2cc3[nH]c(cc4nc(cc5nc(cc1[nH]2)C(C)=C5CCC(=O)O)C(CCC(=O)O)=C4C)c(C)c3C=C : inactive
CCN(CC)CCNC(=O)c1cc(Cl)c(N)cc1OC : inactive

# outcome of Cc1ccc(C(C)C)cc2c(C)ccc1-2 = inactive

---

# System: PAD
# Method summary: qHTS profiling for inhibitors of Plasmodium falciparum proliferation (AID 504749); further: nearly all actives have a fitted effect of over 60% in size
# Condition notes: P. falciparum in erythrocytes, SYBR Green DNA, 72 h; series mostly up to 28.7 µM
# Experimental: NIH National Institute of Allergy and Infectious Diseases [NIAID] NIH Chemical Genomics Center [NCGC] […] Because mature erythrocytes lack DNA, only Plasmodium-derived DNA is detected. NCGC Assay Protocol Summary: The SYBR Green viability assay was adapted from a method described previously (Plouffe et al., 2008). […] The following morning, fluorescence intensity at 485(14) nm excitation and 535(25) nm emission wavelengths was measured on an EnVision (Perkin Elmer) plate reader. […]
Results filed as inconclusive are left out. Calls of active or inactive are those of the source. The call rests on the fitted dose curve; in most records, active means well fitted inhibition curve with a large enough effect; inconclusive means small, poorly fitted or top-dose-only effect; inactive means flat fitted curve, though single readings scatter.
Thanks in advance; please answer with one of these: 1.0 for active, 0.0 for inactive

Consider the following illustrative entries.
CNC(=O)Oc1ccc2c(c1)[C@]1(C)CCN(C)[C@@H]1N2C : 1.0
Oc1cccc(O)c1 : 0.0

Assay outcome for COc1ccccc1O : what was it? 0.0

Assay outcome for C[C@H]1O[C@@H](n2cc(F)c(=O)[nH]c2=O)[C@H](O)[C@@H]1O : what was it? 0.0

Assay outcome for C[C@@H]1CN(c2c(F)c(F)c3c(=O)c(C(=O)O)cn(C4CC4)c3c2F)C[C@H](C)N1 : what was it? 0.0

Assay outcome for NCCNCCNCCN : what was it? 0.0

Assay outcome for CCOC(CN1CCN(CC(C)C(=O)c2ccccc2)CC1)c1ccccc1 (stereo not drawn) : what was it? 0.0

Assay outcome for CCCCCCCCCCCCCCCC(=O)NCCO : what was it? 0.0

Assay outcome for COc1ccc2c(c1)C(=O)N(CCc1ccc(S(=O)(=O)NC(=O)NC3CCCCC3)cc1)C(=O)C2(C)C : what was it? 0.0

Assay outcome for CC1(C)CO[C@@H](CC(=O)O)CN1 : what was it? 0.0

Assay outcome for Cc1cccc(Nc2cc(Cl)nc(SCC(=O)O)n2)c1C : what was it? 0.0

Assay outcome for O=C(Oc1ccccc1C(=O)O)c1ccccc1O : what was it? 0.0
